# SUBJECT OF TEST: NEK7 (Homo sapiens (Human), UniProt Q8TDX7+Q96SW2)
# Sequence (Q8TDX7 whole entry): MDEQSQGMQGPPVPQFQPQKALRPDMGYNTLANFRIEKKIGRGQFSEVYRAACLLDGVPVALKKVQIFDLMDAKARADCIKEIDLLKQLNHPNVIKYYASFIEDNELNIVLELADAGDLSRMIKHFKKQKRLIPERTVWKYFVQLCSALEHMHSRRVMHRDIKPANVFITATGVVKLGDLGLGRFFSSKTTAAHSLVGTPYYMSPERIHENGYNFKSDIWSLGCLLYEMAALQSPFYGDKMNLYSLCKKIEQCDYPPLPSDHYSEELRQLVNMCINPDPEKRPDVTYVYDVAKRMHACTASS
# Sequence (Q96SW2 whole entry): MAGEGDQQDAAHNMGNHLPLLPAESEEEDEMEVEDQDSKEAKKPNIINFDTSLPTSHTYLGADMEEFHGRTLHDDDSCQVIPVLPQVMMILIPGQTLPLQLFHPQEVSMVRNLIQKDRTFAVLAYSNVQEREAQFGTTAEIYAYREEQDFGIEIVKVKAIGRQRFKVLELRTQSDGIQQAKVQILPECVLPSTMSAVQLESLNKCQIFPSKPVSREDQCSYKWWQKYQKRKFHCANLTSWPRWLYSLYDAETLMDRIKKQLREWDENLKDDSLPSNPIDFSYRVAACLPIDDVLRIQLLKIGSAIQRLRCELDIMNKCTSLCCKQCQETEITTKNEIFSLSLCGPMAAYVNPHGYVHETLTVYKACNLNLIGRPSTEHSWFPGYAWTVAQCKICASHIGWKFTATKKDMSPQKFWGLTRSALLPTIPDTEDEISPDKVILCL
# Sequence (Q16531 2-1140 partner): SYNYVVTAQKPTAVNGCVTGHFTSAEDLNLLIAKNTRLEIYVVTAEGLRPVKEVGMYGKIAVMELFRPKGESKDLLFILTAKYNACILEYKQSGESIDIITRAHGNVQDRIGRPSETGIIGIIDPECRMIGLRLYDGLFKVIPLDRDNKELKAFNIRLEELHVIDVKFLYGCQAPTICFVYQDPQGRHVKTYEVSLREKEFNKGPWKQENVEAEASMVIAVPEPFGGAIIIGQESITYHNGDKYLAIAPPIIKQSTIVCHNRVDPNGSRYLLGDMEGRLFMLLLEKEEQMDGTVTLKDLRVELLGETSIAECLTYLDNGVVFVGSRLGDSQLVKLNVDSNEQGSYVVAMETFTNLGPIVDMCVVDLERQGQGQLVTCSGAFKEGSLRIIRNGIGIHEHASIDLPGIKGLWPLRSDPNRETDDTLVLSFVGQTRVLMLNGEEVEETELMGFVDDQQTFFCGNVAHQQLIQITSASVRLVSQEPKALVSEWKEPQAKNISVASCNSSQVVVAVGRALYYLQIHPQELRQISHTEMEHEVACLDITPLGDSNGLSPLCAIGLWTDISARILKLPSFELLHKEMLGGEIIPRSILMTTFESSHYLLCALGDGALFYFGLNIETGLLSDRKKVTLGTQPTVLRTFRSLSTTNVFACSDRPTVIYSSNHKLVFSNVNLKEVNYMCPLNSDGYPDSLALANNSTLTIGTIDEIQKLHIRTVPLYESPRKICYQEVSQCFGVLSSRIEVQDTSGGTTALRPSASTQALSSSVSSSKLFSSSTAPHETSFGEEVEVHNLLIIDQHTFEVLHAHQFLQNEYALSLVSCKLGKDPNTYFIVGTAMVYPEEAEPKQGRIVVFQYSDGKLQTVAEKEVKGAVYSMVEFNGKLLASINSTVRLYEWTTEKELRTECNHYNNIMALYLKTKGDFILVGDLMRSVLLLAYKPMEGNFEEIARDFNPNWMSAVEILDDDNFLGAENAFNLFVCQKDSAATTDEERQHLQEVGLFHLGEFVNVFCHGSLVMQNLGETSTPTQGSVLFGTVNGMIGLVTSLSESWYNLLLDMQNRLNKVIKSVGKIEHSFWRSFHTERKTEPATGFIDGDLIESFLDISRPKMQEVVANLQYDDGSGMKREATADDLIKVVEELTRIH
# EXPERIMENT NOTES: NEK7 NanoBiT degradation assay in Cal51 NEK7 NanoBiT cell line
# Assay type: cell-based
# CONDITION INFO: Cal51 NEK7 NanoBiT cells, 24 hours; read-out: NEK7 NanoBiT DC50
MEASUREMENT KIND: DC50 (nM)
Give your result in nM as a bare value.

In the examples that follow, each entry is paired with its recorded DC50.
COMPOUND: CC(C)(C(=O)NCc1cc(Cl)c(C2CCC(=O)NC2=O)c(Cl)c1)c1ccc(C#N)cn1 (stereo not drawn) [Compound 15]
RESULT UNITS: nM
DC50: 4
--
COMPOUND: CC(C)(C(=O)NCc1cc(Cl)c(C2CCC(=O)NC2=O)c(Cl)c1)c1cc(F)[nH]c(=O)c1 (stereo not drawn) [Compound 59]
RESULT UNITS: nM
DC50: 28
--
COMPOUND: CC(C)(C(=O)NCc1cc(Cl)c(C2CCC(=O)NC2=O)c(Cl)c1)c1cc(C#N)ccn1 (stereo not drawn) [Compound 157]
RESULT UNITS: nM
DC50: 178
--
COMPOUND: Cc1coc(C(C)(C)C(=O)NCc2cc(F)c(C3CCC(=O)NC3=O)c(Cl)c2)n1 (stereo not drawn) [Compound 254]
RESULT UNITS: nM
DC50: 278
--
COMPOUND: CC(C)(C(=O)NCc1ccc(C2CCC(=O)NC2=O)c(Cl)c1)c1cnc(F)nc1 (stereo not drawn) [Compound 3]
RESULT UNITS: nM
DC50: 242

Quick one: DC50 of CC(C)(C(=O)NCc1cc(Cl)c(C2CCC(=O)NC2=O)c(Cl)c1)c1ncc(Cl)cn1 (stereo not drawn) [Compound 194] ?
1

Quick one: DC50 of CC(C)(C(=O)NCc1cc(Cl)c(C2CCC(=O)NC2=O)c(Cl)c1)c1ccns1 (stereo not drawn) [Compound 125] ?
54

Quick one: DC50 of Cn1ncc(C(C)(C)C(=O)NCc2cc(Cl)c(C3CCC(=O)NC3=O)c(Cl)c2)cc1=O (stereo not drawn) [Compound 9] ?
22

Quick one: DC50 of CC(C)(C(=O)NCc1cc(Cl)c(C2CCC(=O)NC2=O)c(Cl)c1)c1cccc(C#N)c1 (stereo not drawn) [Compound 21] ?
3

Quick one: DC50 of CC(C)(C(=O)NCc1cc(Cl)c(C2CCC(=O)NC2=O)c(Cl)c1)c1c(F)cncc1F (stereo not drawn) [Compound 68] ?
1

Quick one: DC50 of CC(C)(C(=O)NCc1cc(Cl)c(C2CCC(=O)NC2=O)c(Cl)c1)c1ccn(CC(F)(F)F)c(=O)c1 (stereo not drawn) [Compound 23] ?
22

Quick one: DC50 of CC(C)(C(=O)NCc1cc(Cl)c(C2CCC(=O)NC2=O)c(Cl)c1)c1ccncc1F (stereo not drawn) [Compound 88] ?
4

Quick one: DC50 of CC(C)(C(=O)NCc1cc(Cl)c(C2CCC(=O)NC2=O)c(Cl)c1)c1cc(F)nc(F)c1 (stereo not drawn) [Compound 73] ?
4

###

# SUBJECT OF TEST: NEK7 (Homo sapiens (Human), UniProt Q8TDX7+Q96SW2)
# EXPERIMENT NOTES: NEK7 NanoBiT degradation assay in Cal51 NEK7 NanoBiT cell line
# Type: cell-based
# CONDITION INFO: Cal51 NEK7 NanoBiT cells, 24 hours; read-out: NEK7 NanoBiT DC50
MEASUREMENT KIND: DC50

In the examples that follow, each entry is paired with its recorded DC50.
COMPOUND: CC(C)(C(=O)NCc1cc(Cl)c(C2CCC(=O)NC2=O)c(Cl)c1)c1ncc(C(=O)O)cn1 (stereo not drawn) [Compound 235]
DC50: 1000 nM
//
COMPOUND: CC(C)(C(=O)NCc1cc(Cl)c(C2CCC(=O)NC2=O)c(Cl)c1)c1cnc(CO)cn1 (stereo not drawn) [Compound 206]
DC50: 18 nM

Note: attention shifts to another entry.
Quick one: DC50 of CC(C)(C(=O)NCc1cc(Cl)c(C2CCC(=O)NC2=O)c(Cl)c1)c1ccccc1F (stereo not drawn) [Compound 26] ?
2 nM
